Origin of measurements: PubChem BioAssay

assay: endothelial E-selectin expression blockers – imaging, HUVEC, immunofluorescence, MLSMR starter and 10KST1 sets, primary screen (AID 487); conditions: HUVEC TNFalpha-induced E-selectin immunofluorescence imaging, at 2 µM; measured here: cell number, toxicity;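 further: 100% = median nuclei count of all wells on the same plate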
observation.type: nuclei count (%)
Reply numerically in %, unit not repeated.

C/C(CC(O)(/C=N/O)c1ccccc1)=N\O (stereo unspecified) = 120
Cn1c(=O)c2c(nc(NCCc3ccccc3)n2CC(=O)NCCc2ccccc2)n(C)c1=O = 105
CCOC(=O)C1=C(c2ccccc2)Nc2nc(C)nn2C1c1cccc(OC)c1OC (stereo unspecified) = 149
Nc1cc(C(=O)O)ccc1Nc1ccccc1 = 101
CC1(c2ccc(OC(F)F)cc2)NC(=O)N(CC(=O)Nc2ccc3c(c2)OCO3)C1=O (stereo unspecified) = 107

In the following, a different compound is considered.
Please report the measured nuclei count for CN(C)S(=O)(=O)c1ccc(C(=O)N2CCC(c3nc4ccccc4o3)CC2)cc1
95
